Origin of the recorded values: paper PMC6533264

# TGT: T1, extracellular domain of human IL-4Rα (residues 26–232), C-terminal 6× His (human, UniProt P24394)
# T1 construct: human interleukin-4 receptor alpha subunit, extracellular domain, residues 26-232; Subcloned into the pSecTag2A vector; N-glycosylated (~45 kDa, ~26 kDa after PNGase F); also called wild-type IL-4Rα; soluble IL-4Rα; source: HEK293F, transiently transfected, purified (Ni-NTA); not shown: His6, C-terminal, kept
# PROTOCOL NOTES: BLI; OctetRED96; Ab (1 μg/mL) captured on anti-human IgG Fc capture (AHC) biosensors at low density (0.6 to 0.8 nm), soluble monomeric IL-4Rα as analyte; 25 °C, PBS pH 7.4, 0.02% Tween 20; association 300 s, dissociation 600-900 s; 1:1 binding model
# PARTICULARS: both partners purified
REPORTED ENDPOINT: kon (M⁻¹ s⁻¹)
Express your answer in M⁻¹ s⁻¹, writing the number without its unit.

4R34.29, human IgG1 (antibody, V domains shown) VH: EVQLLESGGGLVQPGGSLRLSCAASGFTFSNYAMSWVRQAPGKGLEWVSAITAGGGSIYYADSVKGRFTISRDNSKNTLYLQMNSLRAEDTAVYYCARVHRAFDYWGQGTLVTVSS VL: QSVLTQPPSASGTPGQRVTISCSGSSSNIGSNTFNWYQQLPGTAPKLLIYADSHRPSGVPDRFSGSKSGTSASLAISGLRSEDEADYYCGTWDYSLSGYVLGGGTKLTVL
5.18e+06

Q. Look at this binder and give its reported kon. 4R34.1.18, human IgG1 (antibody, V domains shown) VH: EVQLLESGGGLVQPGGSLRLSCAASGFTFSNYAMSWVRQAPGKGLEWVSAITSSGRSIYYADSVKGRFTISRDNSKNTLYLQMNSLRAEDTAVYYCARVHRAFDYWGQGTLVTVSS VL: QSVLTQPPSASGTPGQRVTISCSGSLLRGENLQFNWYQQLPGTAPKLLIYADSHRPSGVPDRFSGSKSGTSASLAISGLRSEDEADYYCGTWDYSLRGYVLGGGTKLTVL
A. 6.05e+06

Q. Look at this binder and give its reported kon. 4R34.1.19, human IgG1 (antibody, V domains shown) VH: EVQLLESGGGLVQPGGSLRLSCAASGFTFSRHAMAWVRQAPGKGLEWVSAITSSGRSIYYADSVKGRFTISRDNSKNTLYLQMNSLRAEDTAVYYCARVHRAFDYWGQGTLVTVSS VL: QSVLTQPPSASGTPGQRVTISCSGSPLFPDSGSFNWYQQLPGTAPKLLIYADSHRPSGVPDRFSGSKSGTSASLAISGLRSEDEADYYCGTWDYSLSGYVLGGGTKLTVL
A. 4.93e+06
